read-out: Urokinase-type plasminogen activator receptor (uPAR), PLAUR (gene 5329); assay: BSK_4H_uPAR: BioMAP Diversity Plus: 4H Assay for Urokinase-type plasminogen activator receptor (uPAR) Biomarker Activity (AID 2283030); conditions: primary human endothelial cells (HUVEC); actives raise or lower the signal
Activity calls are given as the source filed them. How the source made its calls: active means hit-call score of the fitted dose curve at least 0.9, where 1 is the maximum; inactive means score below 0.9.
Could you please pick one outcome from this set? active, inactive

[
  {
    "molecule": "CN1C(=O)CC[C@H]1c1cccnc1",
    "class": "inactive"
  },
  {
    "molecule": "Clc1cc(Cl)c2c(c1)N=C1CCCCCN1C2",
    "class": "inactive"
  },
  {
    "molecule": "OC12N=C(c3ccccc3)SC1Cc1cc(Cl)ccc12 (stereo not given)",
    "class": "inactive"
  },
  {
    "molecule": "CCCOC(=O)c1cc(O)c(O)c(O)c1",
    "class": "inactive"
  },
  {
    "molecule": "COc1cc(C(=O)NC2CCN(C)CC2)ccc1Nc1ncc2c(n1)N(C1CCCC1)CC(F)(F)C(=O)N2C",
    "class": "active"
  }
]

Let's switch to this molecule now.
## Task Can you look up the reported call for `Cc1ncc(CO)c(CO)c1O` for me?
## Result inactive

Just for reference, PubChem BioAssay (EPA / NIEHS) is where these values come from.
